Give Vd for every item shown.
assay.text: Volume of distribution at steady state in iv or po dosed Sprague-Dawley rat
Format: ADME, organism-based
protocol.conditions: in vivo, read-out: Vdss
State the value with its unit after it.

Below: 5 molecules and their reported Vd.
line.notation: O=C1[C@@H](NS(=O)(=O)c2ccc3cc(Cl)ccc3c2)CCN1c1ccc2c(c1)CCNC2
reported.property: Vd
result: 3.6 L/kg
--
line.notation: O=C1[C@@H](NS(=O)(=O)c2ccc3cc(Cl)ccc3c2)CCN1c1ccc2c(c1F)CCNC2
reported.property: Vd
result: 2.4 L/kg
--
line.notation: CN1CCc2cc(N3CC[C@H](NS(=O)(=O)/C=C/c4ccc(Cl)s4)C3=O)ccc2C1
reported.property: Vd
result: 0.7 L/kg
--
line.notation: O=C1[C@@H](NS(=O)(=O)c2ccc3c(Cl)c[nH]c3c2)CCN1c1ccc2c(c1F)CCNC2
reported.property: Vd
result: 1.5 L/kg
--
line.notation: O=C1[C@@H](NS(=O)(=O)c2ccc3c(Cl)c[nH]c3c2)CCN1c1cc2c(cc1F)CNCC2
reported.property: Vd
result: 0.5 L/kg

# batch: return Vd for each of the 2 molecules below
1. CN[C@@H](C)c1ccc(N2CC[C@H](NS(=O)(=O)c3ccc4cc(Cl)ccc4c3)C2=O)c(F)c1
2. O=C1[C@@H](NS(=O)(=O)/C=C/c2ccc(Cl)s2)CCN1c1ccc2c(c1)CCCNC2

Result:
1. 2.4 L/kg
2. 2.6 L/kg

// for each molecule below, give its Vd
1. O=C1[C@@H](NS(=O)(=O)c2ccc3cc[nH]c3c2)CCN1c1ccc2c(c1)CCNC2
2. O=C1[C@@H](NS(=O)(=O)c2ccc3c(Cl)c[nH]c3c2)CCN1c1ccc2c(c1)CCNC2

Result:
["4.1 L/kg", "2.9 L/kg"]
